System: Plasmodium berghei
PROTOCOL TEXT: Screen against P. berghei liver stage (PbLuc), transformed with Luciferase, at 10uM
Format: functional, HepG2
RECORDED CONDITIONS: tested at 10 uM
Out of some 69,000 compounds screened, about 8,600 (12%) showed an effect of 50% or more. The list comes from a sample in which strong results are over-represented; it also holds close analogues and randomly drawn compounds.
OBSERVABLE: INHIBITION (%)

[
  {
    "COMPOUND": "O=C(NCc1cccnc1)N1CCc2ncnc(NC3CC3)c2CC1",
    "OBSERVED MEASUREMENT": 4.98
  },
  {
    "COMPOUND": "Cc1cccc(CN2CCOCC3(CCN(C4CCOCC4)C3)C2)n1 (configuration not stated)",
    "OBSERVED MEASUREMENT": -34.9
  },
  {
    "COMPOUND": "CCCc1ccc(C(=O)N2Cc3c(Cn4ccnc4)nn(C)c3C2)cc1",
    "OBSERVED MEASUREMENT": 78.8
  },
  {
    "COMPOUND": "CC(C)CN1CCc2c(CN(C)Cc3ccco3)cncc2C1",
    "OBSERVED MEASUREMENT": -15.2
  },
  {
    "COMPOUND": "Cc1nn(C)c(C)c1C1CCCN1C(=O)c1cc(C(N)=O)cs1 (configuration not stated)",
    "OBSERVED MEASUREMENT": -11.2
  },
  {
    "COMPOUND": "COCCC(=O)N(CCC#N)c1ccc(C)c(C)c1",
    "OBSERVED MEASUREMENT": 27
  },
  {
    "COMPOUND": "c1ccc(CN2CCCC3(CCN(CC4CCCO4)CC3)C2)nc1 (configuration not stated)",
    "OBSERVED MEASUREMENT": 62
  },
  {
    "COMPOUND": "Cc1ccc(NC(=O)c2nc3c(s2)CCCN3C(C)C)cn1",
    "OBSERVED MEASUREMENT": 63.5
  },
  {
    "COMPOUND": "CSc1ncn(-c2nc(N(C)C)nc(N(C)C)n2)n1",
    "OBSERVED MEASUREMENT": 21.2
  },
  {
    "COMPOUND": "CC(=O)N1CCCc2sc(C(=O)Nc3ccc(C)nc3)nc21",
    "OBSERVED MEASUREMENT": 34.6
  },
  {
    "COMPOUND": "Cc1cc2nc(O)c(O)nc2cc1S(=O)(=O)NC1CC1",
    "OBSERVED MEASUREMENT": 60.7
  },
  {
    "COMPOUND": "Cc1ncc(CN2CCC(c3nc4cc(Cl)ccc4o3)CC2)s1",
    "OBSERVED MEASUREMENT": 83.3
  },
  {
    "COMPOUND": "c1cc(CN2CCCC3(CCN(CC4CCCO4)CC3)C2)n[nH]1 (configuration not stated)",
    "OBSERVED MEASUREMENT": 47.5
  },
  {
    "COMPOUND": "c1cc(CN2CCCC(c3noc(C4CC4)n3)C2)no1 (configuration not stated)",
    "OBSERVED MEASUREMENT": 51.6
  },
  {
    "COMPOUND": "O=C(Cc1ccc2c(c1)CCO2)N1CCN(c2ccccn2)CC1",
    "OBSERVED MEASUREMENT": -13.5
  },
  {
    "COMPOUND": "Cc1ccc(C(=O)N2CCc3c(CN4CCCC4)nn(C)c3C2)cc1C",
    "OBSERVED MEASUREMENT": 44.3
  },
  {
    "COMPOUND": "COCc1nnc2n1CCN(Cc1ccoc1)C2",
    "OBSERVED MEASUREMENT": 33
  },
  {
    "COMPOUND": "Cn1cccc1C(=O)N[C@@H]1CN(Cc2cccs2)[C@@H]2COC[C@@H]21",
    "OBSERVED MEASUREMENT": -4.88
  },
  {
    "COMPOUND": "CCOCc1nnc2n1CCN(Cc1c(C)noc1C)CC2",
    "OBSERVED MEASUREMENT": 30.3
  },
  {
    "COMPOUND": "O=C1CC(c2cccnc2)c2c(c(C(=O)O)cn2-c2ccc(Cl)cc2)N1 (configuration not stated)",
    "OBSERVED MEASUREMENT": 20
  },
  {
    "COMPOUND": "CCCc1nc(C(=O)NC(COC)c2ccnn2C)cs1 (configuration not stated)",
    "OBSERVED MEASUREMENT": 16.3
  },
  {
    "COMPOUND": "CCSc1ccc(C(C)NC(=O)CCS(C)(=O)=O)cc1 (configuration not stated)",
    "OBSERVED MEASUREMENT": 2.91
  },
  {
    "COMPOUND": "Cc1nc(NCc2scnc2-c2ccccc2)cc(C2CCNCC2)n1",
    "OBSERVED MEASUREMENT": 24.3
  },
  {
    "COMPOUND": "CCOc1cc(C)nc(N2CCN(C(=O)C(C)NC(C)=O)CC2)n1 (configuration not stated)",
    "OBSERVED MEASUREMENT": 60.5
  },
  {
    "COMPOUND": "c1cncc(N2CCCC3(CCN(CC4CCCO4)CC3)C2)c1 (configuration not stated)",
    "OBSERVED MEASUREMENT": 3.58
  },
  {
    "COMPOUND": "Cn1ccnc1CN1CCCC2(CCN(CC3CCCO3)CC2)C1 (configuration not stated)",
    "OBSERVED MEASUREMENT": 38.1
  },
  {
    "COMPOUND": "C1CC(c2noc(C3CC3)n2)CN(Cc2noc(C3CC3)n2)C1 (configuration not stated)",
    "OBSERVED MEASUREMENT": 17.8
  },
  {
    "COMPOUND": "Cc1ncc(CN2CCCN(Cc3noc(C4CC4)n3)CC2)s1",
    "OBSERVED MEASUREMENT": -36.1
  },
  {
    "COMPOUND": "Cc1cc(C[S+]([O-])CC(=O)NCc2cccc(Cl)c2)no1 (configuration not stated)",
    "OBSERVED MEASUREMENT": 49.8
  },
  {
    "COMPOUND": "COc1cc(C)nc(N2CCN(C(=O)CN(C)C3CC3)CC2)n1",
    "OBSERVED MEASUREMENT": -3.18
  },
  {
    "COMPOUND": "Cc1ccc(NC(=O)c2nc3c(s2)CCCN3C(=O)C2CC2)cn1",
    "OBSERVED MEASUREMENT": -0.804
  },
  {
    "COMPOUND": "c1ccc(OCCNC2CCN(c3ncccn3)CC2)cc1",
    "OBSERVED MEASUREMENT": -32.6
  },
  {
    "COMPOUND": "c1cnc(N2CCOCC3(CN(Cc4nccs4)CCO3)C2)nc1 (configuration not stated)",
    "OBSERVED MEASUREMENT": -34.7
  },
  {
    "COMPOUND": "CCOCc1cccc(NCc2c[nH]nc2-c2cccnc2)c1",
    "OBSERVED MEASUREMENT": 49.1
  },
  {
    "COMPOUND": "CCN(CC)CC(=O)N1CCN(c2nc(C)cc(OC)n2)CC1",
    "OBSERVED MEASUREMENT": 2.54
  },
  {
    "COMPOUND": "Cc1cccc(CN2CCCC3(CCN(CC4CCCO4)CC3)C2)n1 (configuration not stated)",
    "OBSERVED MEASUREMENT": 53
  },
  {
    "COMPOUND": "Cc1cc(N2CCC(NCCOc3ccccc3)CC2)nc(C)n1",
    "OBSERVED MEASUREMENT": 9.72
  },
  {
    "COMPOUND": "Cc1cc2[nH]c(=O)c(=O)[nH]c2cc1S(=O)(=O)NC1CCCCC1",
    "OBSERVED MEASUREMENT": -27.7
  },
  {
    "COMPOUND": "Cc1ccc(C(=O)N2Cc3c(CN4CCCCC4)nn(C)c3C2)cc1F",
    "OBSERVED MEASUREMENT": -31
  },
  {
    "COMPOUND": "Cc1cc2[nH]c(=O)c(=O)[nH]c2cc1S(=O)(=O)NC1CCC(C)CC1 (configuration not stated)",
    "OBSERVED MEASUREMENT": 23
  },
  {
    "COMPOUND": "CN(C)CCN1C(=O)CCC12CCCN(C(=O)C1CC=CC1)CC2 (configuration not stated)",
    "OBSERVED MEASUREMENT": -38.1
  },
  {
    "COMPOUND": "Cc1cccn2cc(CN3CCCC(c4noc(C5CC5)n4)C3)nc12 (configuration not stated)",
    "OBSERVED MEASUREMENT": -48.6
  },
  {
    "COMPOUND": "CCCS(=O)(=O)N1C[C@@H]2C[C@H](C(=O)N(C)C)[C@H](C1)O2",
    "OBSERVED MEASUREMENT": 49.7
  },
  {
    "COMPOUND": "Cc1cc(=O)n2nc(CNc3cc(Cl)ccc3C)nc2[nH]1",
    "OBSERVED MEASUREMENT": 39.2
  },
  {
    "COMPOUND": "Cc1nc(C)c(C)c(N2CCC(NCCOc3ccccc3)CC2)n1",
    "OBSERVED MEASUREMENT": 77.8
  },
  {
    "COMPOUND": "COc1ccccc1CN1CCc2c(nc(-c3ccccn3)[nH]c2=O)C1",
    "OBSERVED MEASUREMENT": 25.6
  },
  {
    "COMPOUND": "COc1ccc(NCc2c[nH]nc2-c2cccnc2)cc1",
    "OBSERVED MEASUREMENT": 56.8
  }
]
